# experimentalTarget: alpha-synuclein (Homo sapiens, UniProt P37840)
# testSummary: SPR
readout: pKd
Just so you know, pKd here is -log10 of the concentration in molar units; reply with that number alone.

Fill in the blank: the reported pKd of AQSTQ [QSTQ peptide (immobilized with added N-terminal alanine)] is ____. 4.72
